system: Camelpox virus; assay: Antiviral activity against Camelpox virus CML1 infected in differentiated human PHK raft culture assessed as reduction in viral titer determined in HEL299 cells treated after 7 days postinfection by virus yield reduction assay; format: functional; conditions: CML1, HEL 299, 168 h
Each entry below lists one item and its recorded EC99 value.
The figure you give is taken to be in µM; do not add the unit.

Nc1ncn(C[C@@H](CO)OCP(=O)(O)O)c(=O)n1; 16
C[C@H](COC1=CC(N)N(O)C(N)=N1)OCP(=O)(O)O (stereo not given in full); 5
Nc1ncnc(=O)n1C[C@H]1COP(=O)(O)CO1; 67
Nc1ccn(C[C@@H](CO)OCP(=O)(O)O)c(=O)n1.O.O; 6

Query block: Form entry - test system: Camelpox virus; read-out: EC99; compound: "Nc1ccn(C[C@H]2COP(=O)(O)CO2)c(=O)n1"
Result block: 38

====

test: Selectivity index, ratio of CC50 for HEL299 cells to EC50 for Camelpox virus CML14 infected in HEL299 cells; assay type: toxicity, cell-based, HEL 299; conditions: human, HEL299 cells; read-out: Ratio CC50/IC50
EXPERIMENTAL READOUT: selectivity ratio
Answer with a bare number; do not write a unit.

Nc1nccc2c1ncn2C[C@@H](CO)OCP(=O)(O)O; 18
CC(O)C(Nc1nc(N)nc2c1ncn2CCOCP(=O)(O)O)C(=O)O (racemic); 0.3
Nc1ncnc2c1ncn2C[C@H]1COP(=O)(O)CO1; 441

Query block: # input compound: "Nc1ccn(C[C@@H](CO)OCP(=O)(O)O)c(=O)n1.O.O" ; wanted: its selectivity ratio
Result block: 29

Query block: What about CC(C)CC(Nc1nc(N)nc2c1ncn2CCOCP(=O)(O)O)C(=O)O (racemic) ?
Result block: 0.3

====

experiment: Cytotoxicity against HEL299 cells after 4 days by Z1 Coulter counting analysis; assay type: cell-based, HEL 299; conditions: human, hel 299, 96 h
EXPERIMENTAL READOUT: CC50 (µM)
The figure you give is taken to be in µM; do not add the unit.

Query block: Please look up its CC50: "CCCCCCCCCCCCCCCCOCCO[PH]1(O)CO[C@@H](Cn2c(N)ncnc2=O)CO1"
Result block: 79

====

# key: entry, value: log10 CC50 at 96 h
assay: Cytotoxicity against HEL299 cells after 4 days by Z1 Coulter counting analysis; assay type: cell-based, HEL 299; settings: human, HEL299 cells
On a log10 scale: recorded CC50 at 96 h, unit µM.

C[C@H](COC1=CC(N)N(O)C(N)=N1)OCP(=O)(O)O (stereo partly specified); 2.21
Nc1nc(N)c2ncn(C[C@@H](CO)OCP(=O)(O)O)c2n1; 1.65
Nc1nc(NCCP(=O)(O)O)c2ncn(CCOCP(=O)(O)O)c2n1; 1.63
Nc1ccn(C[C@H]2COP(=O)(O)CO2)c(=O)n1 [CYCLIC CIDOFOVIR]; 2.53
CC(O)C(Nc1nc(N)nc2c1ncn2CCOCP(=O)(O)O)C(=O)O (racemic); 0.95

Query block: Quick one: log10 CC50 at 96 h for Nc1nc(NC(Cc2ccccc2)C(=O)O)c2ncn(CCOCP(=O)(O)O)c2n1 (racemic) ?
Result block: 2.00

Query block: Next compound up: "Nc1nc(NCCS(=O)(=O)O)c2ncn(CCOCP(=O)(O)O)c2n1"
Result block: 2.41

Query block: What would you report for "Nc1ncn(C[C@@H](CO)OCP(=O)(O)O)c(=O)n1" ?
Result block: 2.74

Query block: Check NC1=NC(OC[C@@H]2CP(=O)(O)CO2)=CC(N)N1O (stereo partly specified) too.
Result block: 2.17

Query block: "Nc1ncnc2c1ncn2C[C@H]1COP(=O)(O)CO1" , same question.
Result block: 1.80

====

test: Selectivity index, ratio of CC50 for HEL299 cells to EC50 for Camelpox virus CML1 infected in HEL299 cells; format: toxicity, cell-based, HEL 299; conditions: human, HEL299 cells; read-out: Ratio CC50/IC50
EXPERIMENTAL READOUT: selectivity ratio
Please state the value as a number alone, without comment.

Recorded selectivity ratio, per entry:
C[C@@H](O)[C@H](Nc1nc(N)nc2c1ncn2CCOCP(=O)(O)O)C(=O)O; 0.3
Nc1ncn(C[C@@H](CO)OCP(=O)(O)O)c(=O)n1; 45
C[C@H](O)[C@H](Nc1nc(N)nc2c1ncn2CCOCP(=O)(O)O)C(=O)O; 1

Query block: Which selectivity ratio value belongs to "Nc1ncnc(=O)n1C[C@H]1COP(=O)(O)CO1" ?
Result block: 33

Query block: Same question for Nc1nc(NC(CO)C(=O)O)c2ncn(CCOCP(=O)(O)O)c2n1 (racemic) please.
Result block: 0.1

====

// CC50 at 96 h lookup, one value per entry
assay: Cytotoxicity against human PHK after 4 days by Z1 Coulter counting analysis; conditions: PHK cells
Answer format: numeric, µM implied, no suffix.

// worked examples, CC50 at 96 h included
Nc1ncnc2c1ncn2C[C@@H](CO)OCP(=O)(O)O; 1
Nc1nc(NCS(=O)(=O)O)c2ncn(CCOCP(=O)(O)O)c2n1; 0.1
Nc1nc(N)c2ncn(CCOCP(=O)(O)O)c2n1; 8
Nc1ncnc2c1ncn2C[C@H]1COP(=O)(O)CO1; 3
Nc1ncnc(=O)n1C[C@H]1COP(=O)(O)CO1; 34
C[C@@H](O)[C@H](Nc1nc(N)nc2c1ncn2CCOCP(=O)(O)O)C(=O)O; 19

Query block: Value lookup for CC50 at 96 h; key = CC(O)C(Nc1nc(N)nc2c1ncn2CCOCP(=O)(O)O)C(=O)O (racemic)
Result block: 2

Query block: Entry to check: "Nc1cc(OCCOCP(=O)(O)O)nc(N)n1"
Result block: 4

====

Parameter CC50 at 96 h: see the listing below.
experiment: Cytotoxicity against HEL299 cells after 4 days by Z1 Coulter counting analysis; type: cell-based, HEL 299; conditions: human, HEL299 cells
Output spec: scalar in µM, unitless text.

Nc1nc2c(ncn2CCOCP(=O)(O)O)c(=O)[nH]1; 1
Nc1ccn(C[C@@H](CO)OCP(=O)(O)O)c(=O)n1.O.O; 192

Query block: I am curious: what CC50 at 96 h value has been reported for "Nc1ncnc2c1ncn2CCOCP(=O)(O)O" ?
Result block: 211

Query block: Again, but for "Nc1nc(NCCC(=O)O)c2ncn(CCOCP(=O)(O)O)c2n1"
Result block: 294

Query block: And Nc1nc(NC(CO)C(=O)O)c2ncn(CCOCP(=O)(O)O)c2n1 (racemic) ?
Result block: 3

====

Reported selectivity ratio is given for each of the following molecules.
assay: Selectivity index, ratio of CC50 for HEL299 cells to EC50 for Camelpox virus CML14 infected in HEL299 cells; format: toxicity, cell-based, HEL 299; details: human, HEL299 cells; read-out: Ratio CC50/IC50

CN(C)c1ncnc2c1ncn2CCOCP(=O)(O)O; 1

Query block: For the molecule "C[C@@H](O)[C@H](Nc1nc(N)nc2c1ncn2CCOCP(=O)(O)O)C(=O)O" , what selectivity ratio is on record?
Result block: 0.3

Query block: Same lookup for "Nc1nc(N)c2ncn(C[C@@H](CO)OCP(=O)(O)O)c2n1" , please.
Result block: 70

Query block: Ok, now "Nc1nc(Cl)c2ncn(CCOCP(=O)(O)O)c2n1"
Result block: 1

Query block: What about this molecule? "Nc1nc(NCS(=O)(=O)O)c2ncn(CCOCP(=O)(O)O)c2n1"
Result block: 1

Query block: Next molecule: "Nc1ncn(C[C@@H](CO)OCP(=O)(O)O)c(=O)n1"
Result block: 46

Query block: Proceed to Nc1nc2c(ncn2CCOCP(=O)(O)O)c(=O)[nH]1 [GS-438]
Result block: 0.2

Query block: Another molecule to look at: Nc1ccn(C[C@H]2COP(=O)(O)CO2)c(=O)n1 [CYCLIC CIDOFOVIR]
Result block: 38

Query block: Same read-out for Nc1nc(NC(CO)C(=O)O)c2ncn(CCOCP(=O)(O)O)c2n1 (racemic) ?
Result block: 0.1

Query block: How about "Nc1nc(NCCS(=O)(=O)O)c2ncn(CCOCP(=O)(O)O)c2n1" ?
Result block: < 2

Query block: # repeat for "Nc1ncnc2c1ncn2C[C@@H](CO)OCP(=O)(O)O"
Result block: 60

====

The entries below are paired with their reported selectivity ratio.
assay: Selectivity index, ratio of CC50 for HEL299 cells to EC50 for Camelpox virus CML1 infected in HEL299 cells; format: toxicity, cell-based, HEL 299; conditions: human, HEL299 cells; read-out: Ratio CC50/IC50
Please reply with the number alone, leaving off any unit.

Query block: Request the reported selectivity ratio associated with CC(C)(C)C(=O)OCOP(=O)(COC(CO)Cn1cnc(N)nc1=O)OCOC(=O)C(C)(C)C (stereo unspecified)
Result block: 250

Query block: What do you have for "Nc1ncnc2c1ncn2C[C@@H](CO)OCP(=O)(O)O" ?
Result block: 66

Query block: What do you get for NC1=NC(OC[C@@H]2CP(=O)(O)CO2)=CC(N)N1O (stereo partly specified) ?
Result block: 28

Query block: How about this compound: "Nc1nccc2c1ncn2C[C@@H](CO)OCP(=O)(O)O"
Result block: 20
